# TESTED_TARGET: interaction between recombinant K-Ras4B G12C mutant protein and cRAF RAS-binding domain (cRAF-RBD) (Homo sapiens, UniProt P01116, G12C)
# Sequence (P01116 with tags, fused parts or gaps isoform P01116-2 G12C): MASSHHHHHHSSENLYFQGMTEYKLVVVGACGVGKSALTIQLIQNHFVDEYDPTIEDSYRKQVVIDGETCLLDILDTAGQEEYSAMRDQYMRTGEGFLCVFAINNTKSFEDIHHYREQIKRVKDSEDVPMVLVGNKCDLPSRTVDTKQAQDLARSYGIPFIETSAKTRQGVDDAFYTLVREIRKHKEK
# EXPERIMENT_NOTES: Inhibitory activity on interaction between KRAS G12C and cRAF (Alpha technology)
# MEASUREMENT_CONDITIONS: GMPPNP-bound KRAS G12C incubated with compound at 25° C. for 1 hour, then cRAF-RBD; Alpha signal
QUANTITY: log10(IC50) (log10 of the value in nM)
log10 IC50, nM

So what does the record say about log10(IC50) for CO[C@H]1CC[C@H](NC/C=C/C(=O)Nc2c(F)cc(C(=O)c3ccc4c(-c5c(C(F)(F)F)cc6c(nc(CF)n6C)c5Cl)cccn34)cc2F)CC1 [Example 68] ?
1.89

So what does the record say about log10(IC50) for COc1c(-c2cc(F)cn3c(C(=O)c4cc(F)c(NC(=O)/C=C/CNC5(C)CC5)c(F)c4)cnc23)c(C(F)(F)F)cc2c1nc(C)n2C (single isomer, unassigned) [Example 112-1] ?
1.31

So what does the record say about log10(IC50) for Cc1cc2c(ncn2C)c(C)c1-c1cccn2c(C(=O)c3cc(F)c(NC(=O)/C=C/CNC(C)(C)C)c(F)c3)ccc12 [Example 29] ?
1.95

So what does the record say about log10(IC50) for Cc1nc2cc(-c3cccn4c(C(=O)c5cc(F)c(NC(=O)/C=C/CN[C@H]6CC[C@@H](F)CC6)c(F)c5)ccc34)c(C(F)(F)F)cc2n1C [Example 81] ?
1.85

So what does the record say about log10(IC50) for Cc1nc2cc(-c3cccn4c(C(=O)c5cc(F)c(NC(=O)/C=C/CNC6CCOCC6)c(F)c5)ccc34)c(C(F)(F)F)cc2n1C [Example 24] ?
1.73

So what does the record say about log10(IC50) for Cc1cc2c(nc(C)n2C)c(Cl)c1-c1cccn2c(C(=O)c3cc(F)c(NC(=O)/C=C/CNC(C)(C)C)c(F)c3)ccc12 (single isomer, unassigned) [Example 18-2] ?
2.34

So what does the record say about log10(IC50) for CO[C@H]1CC[C@H](NC/C=C/C(=O)Nc2c(F)cc(C(=O)c3ccc4c(-c5cc6nc(C)n(C)c6cc5C(F)(F)F)cccn34)cc2F)CC1 [Example 2] ?
1.78

So what does the record say about log10(IC50) for CO[C@H]1CC[C@H](NC/C=C/C(=O)Nc2c(F)cc(C(=O)c3cc(C(=O)N(C)C)c4c(-c5c(C)cc6c(nc(C)n6C)c5Cl)cccn34)cc2F)CC1 [Example 106] ?
1.49

So what does the record say about log10(IC50) for COc1nc2c(cc1-c1cccn3c(C(=O)c4cc(F)c(NC(=O)/C=C/CN[C@H]5CC[C@H](OC)CC5)c(F)c4)ccc13)nc(C)n2C [Example 33] ?
1.88

So what does the record say about log10(IC50) for CO[C@H]1CC[C@H](NC/C=C/C(=O)Nc2c(F)cc(C(=O)c3cc(C(N)=O)c4c(-c5c(C)cc6c(nc(C)n6C)c5Cl)cccn34)cc2F)CC1 [Example 107] ?
1.58

So what does the record say about log10(IC50) for CO[C@H]1CC[C@H](NC/C=C/C(=O)Nc2c(F)cc(C(=O)c3ccc4c(-c5c(C#N)cc6c(nc(C)n6C)c5Cl)cccn34)cc2F)CC1 [Example 37] ?
1.94
